Origin of measurements: patent US8765802B2

# target-or-system: Chk2 (Homo sapiens, UniProt O96017)
# Sequence (O96017 whole entry): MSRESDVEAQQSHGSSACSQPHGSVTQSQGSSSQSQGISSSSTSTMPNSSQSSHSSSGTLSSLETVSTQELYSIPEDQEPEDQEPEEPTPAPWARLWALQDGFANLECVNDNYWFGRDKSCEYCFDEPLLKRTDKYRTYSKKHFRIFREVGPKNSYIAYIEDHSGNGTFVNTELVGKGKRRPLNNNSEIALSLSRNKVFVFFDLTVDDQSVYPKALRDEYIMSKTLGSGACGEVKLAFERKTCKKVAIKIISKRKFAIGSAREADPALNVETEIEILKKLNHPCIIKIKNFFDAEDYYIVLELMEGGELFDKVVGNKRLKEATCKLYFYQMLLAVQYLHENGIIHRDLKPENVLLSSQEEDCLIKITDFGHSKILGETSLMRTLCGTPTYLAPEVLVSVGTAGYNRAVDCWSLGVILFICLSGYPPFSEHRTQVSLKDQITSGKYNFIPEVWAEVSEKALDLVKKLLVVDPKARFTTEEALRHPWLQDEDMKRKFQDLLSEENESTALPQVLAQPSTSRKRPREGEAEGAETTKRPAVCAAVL
# experiment-summary: Chk2 inhibitor IMAP assay (high-throughput Chk2 screening assay)
# reported-conditions: IMAP fluorescence polarization assay, 10 μM ATP
# Protocol: Compounds set forth in Table 1 were tested in the Chk2 inhibitor IMAP assay described herein in Example 6.84. […] Compounds can be screened for Chk2 inhibitory activity using a high-throughput screening assay based in the immobilized metal ion affinity-based fluorescence polarization (IMAP) assay developed by Molecular Devices. […] Thus, inhibition of Chk2 would result in a decrease in fluorescence polarization compared to control. […]
parameter: EC50

Record CCCC(=NNC(=N)N)c1ccc2[nH]c(C(=O)Nc3ccc4cc[nH]c4c3)cc2c1 (single isomer, unassigned) [Compound 113] : what is its EC50 with Chk2 (Homo sapiens, UniProt O96017)?
0.3 to 1 µM

// query: C/C(=N\NC(=N)N)c1ccc(NC(=O)c2cc3cc(F)ccc3[nH]2)cc1 [Compound 87]
1 to 10 µM

// query: C/C(=N\NC(=N)N)c1ccc2[nH]c(C(=O)Nc3ccc4[nH]ccc4c3)cc2c1 [Compound 80]
0.3 to 1 µM

// query: C/C(=N/NC(=N)N)c1ccc(NC(=O)c2[nH]c3ccccc3c2Br)cc1 [Compound 30]
0.3 to 1 µM

// query: C/C(=N\NC(=N)N)c1ccc(NC(=O)c2cc3cc(C(N)=O)ccc3[nH]2)cc1 [Compound 27]
0.1 to 0.3 µM

* * *

Provide the reported EC50 of each item.
# target-or-system: Chk2 (Homo sapiens)
# experiment-summary: Chk2 inhibitor IMAP assay (high-throughput Chk2 screening assay)
# reported-conditions: IMAP fluorescence polarization assay, 10 μM ATP
# Method: Compounds set forth in Table 1 were tested in the Chk2 inhibitor IMAP assay described herein in Example 6.84. […] Compounds can be screened for Chk2 inhibitory activity using a high-throughput screening assay based in the immobilized metal ion affinity-based fluorescence polarization (IMAP) assay developed by Molecular Devices. […] Thus, inhibition of Chk2 would result in a decrease in fluorescence polarization compared to control. […]

Reported EC50 for C/C(=N\NC(=N)N)c1ccc(NC(=O)c2cc3cccc(NS(N)(=O)=O)c3[nH]2)cc1 [Compound 95] : what is it?
1000 to 10000 nM

// query: COc1ccc2[nH]c(C(=O)Nc3ccc4c(c3)CC/C4=N\NC(=N)N)cc2c1 [Compound 110]
> 10000 nM

// query: COc1cc2cc(C(=O)Nc3ccc(/C(C)=N/NC(=N)N)cc3)[nH]c2cc1OCc1ccccc1 [Compound 29]
1000 to 10000 nM

// query: C/C(=N\NC(=N)N)c1ccc(NC(=O)c2nc3ccccc3[nH]2)cc1 [Compound 100]
> 10000 nM

// query: C/C(=N\NC(=N)N)c1ccc(NC(=O)c2cc3ccccc3o2)cc1 [Compound 52]
1000 to 10000 nM

// query: C/C(=N\NC(=N)N)c1ccc(NC(=O)Nc2ccc(/C(C)=N/NC(=N)N)c(C)c2)cc1 [Compound 4]
100 to 300 nM

// query: C/C(=N\NC(=N)N)c1ccc(NC(=O)Nc2ccc(/C(=N/NC(=N)N)C(C)C)cc2)cc1 [Compound 51]
1000 to 10000 nM

// query: C/C(=N\NC(=N)N)c1ccc2[nH]c(C(=O)Nc3ccc4[nH]c(C)cc4c3)cc2c1 [Compound 109]
300 to 1000 nM

// query: CCC/C(=N\NC(=N)N)c1ccc(NC(=O)Nc2ccc(/C(C)=N/NC(=N)N)cc2)cc1 [Compound 1]
< 100 nM

// query: C/C(=N\NC(=N)N)c1ccc2[nH]c(C(=O)Nc3cc(C)ccn3)cc2c1 [Compound 102]
1000 to 10000 nM

// query: C/C(=N\NC(=N)N)c1ccc(NC(=O)c2cc3cc(Cl)ccc3[nH]2)cc1 [Compound 67]
1000 to 10000 nM

// query: C/C(=N\NC(=N)N)c1ccc(NC(=O)c2cc3ccccc3cn2)cc1 [Compound 58]
1000 to 10000 nM

// query: N=C(N)N/N=C1\CCc2cc(NC(=O)c3cc4cccc([N+](=O)[O-])c4[nH]3)ccc21 [Compound 96]
1000 to 10000 nM

// query: C/C(=N\NC(=N)N)c1ccc2[nH]c(C(=O)Nc3ccccn3)cc2c1 [Compound 104]
> 10000 nM

// query: C/C(=N\NC(=N)N)c1ccc2[nH]c(C(=O)Nc3ccc4cnccc4c3)cc2c1 [Compound 126]
< 100 nM

// query: N=C(N)N/N=C1\CCCc2cc(NC(=O)c3cc4cccc([N+](=O)[O-])c4[nH]3)ccc21 [Compound 86]
< 100 nM

// query: C/C(=N/NC(=N)N)c1ccc(NC(=O)Nc2ccc(NC(=O)/C(C)=N/NC(=N)N)cc2)cc1 [Compound 12]
300 to 1000 nM

// query: C/C(=N\NC(=N)N)c1ccc(NC(=O)c2cc3ccc(C)cc3[nH]2)cc1 [Compound 93]
300 to 1000 nM

// query: C/C(=N\NC(=N)N)c1ccc(NC(=O)c2cc3ccc(Cl)cc3[nH]2)cc1 [Compound 94]
300 to 1000 nM

// query: COc1cc2nc(NC(=O)c3ccc(/C(C)=N/NC(=N)N)cc3)sc2cc1OC [Compound 46]
1000 to 10000 nM

// query: C/C(=N\NC(=N)N)c1ccc(NC(=O)c2cc3ccccc3o2)cc1 [Compound 8]
300 to 1000 nM

// query: COc1ccc2[nH]c(C(=O)Nc3ccc(/C(C)=N/NC4=NCCN4)cc3)cc2c1 [Compound 19]
100 to 300 nM

// query: COc1ccc2[nH]c(C(=O)Nc3ccc4c(c3)CCC/C4=N\NC(=N)N)cc2c1 [Compound 105]
300 to 1000 nM

// query: C/C(=N\NC(=N)N)c1ccc(NC(=O)c2cc3ccc(S(C)(=O)=O)cc3[nH]2)cc1 [Compound 89]
300 to 1000 nM

// query: C/C(=N\NC1=NCCN1)c1ccc(NC(=O)Nc2ccc(/C(C)=N/NC3=NCCN3)cc2)cc1 [Compound 15]
< 100 nM

// query: C/C(=N/N/C(N)=N\O)c1ccc2[nH]c(C(=O)Nc3ccc(N4CCCCC4)cc3)cc2c1 [Compound 128]
100 to 300 nM

// query: C/C(=N\NC(=N)N)c1ccc2[nH]c(C(=O)Nc3ccc4ncccc4c3)cc2c1 [Compound 101]
< 100 nM

// query: C/C(=N\NC(=N)N)c1ccc(NC(=O)Nc2ccc(Br)cc2)cc1 [Compound 37]
100 to 300 nM

// query: C/C(=N\NC(=N)N)c1ccc(NC(=O)c2c[nH]c3ccccc23)cc1 [Compound 2]
1000 to 10000 nM

// query: COc1ccc2cc(C(=O)Nc3ccc(/C(C)=N/NC(=N)N)cc3)[nH]c2c1 [Compound 74]
300 to 1000 nM

// query: CC(=O)c1ccc(NC(=O)Nc2ccc(/C(C)=N/NC(=N)N)cc2)cc1 [Compound 36]
100 to 300 nM

// query: C/C(=N\NC(=N)N)c1ccc(NC(=O)c2ccc3c(c2)CCC/C3=N\NC(=N)N)cc1 [Compound 79]
1000 to 10000 nM

// query: CC(=O)c1ccc(NC(=O)c2cc3cc(/C(C)=N/NC(=N)N)ccc3[nH]2)cc1 [Compound 72]
300 to 1000 nM
